system_tested: Hepatocyte growth factor receptor (Homo sapiens) (UniProt P08581)
Sequence (P08581 whole entry): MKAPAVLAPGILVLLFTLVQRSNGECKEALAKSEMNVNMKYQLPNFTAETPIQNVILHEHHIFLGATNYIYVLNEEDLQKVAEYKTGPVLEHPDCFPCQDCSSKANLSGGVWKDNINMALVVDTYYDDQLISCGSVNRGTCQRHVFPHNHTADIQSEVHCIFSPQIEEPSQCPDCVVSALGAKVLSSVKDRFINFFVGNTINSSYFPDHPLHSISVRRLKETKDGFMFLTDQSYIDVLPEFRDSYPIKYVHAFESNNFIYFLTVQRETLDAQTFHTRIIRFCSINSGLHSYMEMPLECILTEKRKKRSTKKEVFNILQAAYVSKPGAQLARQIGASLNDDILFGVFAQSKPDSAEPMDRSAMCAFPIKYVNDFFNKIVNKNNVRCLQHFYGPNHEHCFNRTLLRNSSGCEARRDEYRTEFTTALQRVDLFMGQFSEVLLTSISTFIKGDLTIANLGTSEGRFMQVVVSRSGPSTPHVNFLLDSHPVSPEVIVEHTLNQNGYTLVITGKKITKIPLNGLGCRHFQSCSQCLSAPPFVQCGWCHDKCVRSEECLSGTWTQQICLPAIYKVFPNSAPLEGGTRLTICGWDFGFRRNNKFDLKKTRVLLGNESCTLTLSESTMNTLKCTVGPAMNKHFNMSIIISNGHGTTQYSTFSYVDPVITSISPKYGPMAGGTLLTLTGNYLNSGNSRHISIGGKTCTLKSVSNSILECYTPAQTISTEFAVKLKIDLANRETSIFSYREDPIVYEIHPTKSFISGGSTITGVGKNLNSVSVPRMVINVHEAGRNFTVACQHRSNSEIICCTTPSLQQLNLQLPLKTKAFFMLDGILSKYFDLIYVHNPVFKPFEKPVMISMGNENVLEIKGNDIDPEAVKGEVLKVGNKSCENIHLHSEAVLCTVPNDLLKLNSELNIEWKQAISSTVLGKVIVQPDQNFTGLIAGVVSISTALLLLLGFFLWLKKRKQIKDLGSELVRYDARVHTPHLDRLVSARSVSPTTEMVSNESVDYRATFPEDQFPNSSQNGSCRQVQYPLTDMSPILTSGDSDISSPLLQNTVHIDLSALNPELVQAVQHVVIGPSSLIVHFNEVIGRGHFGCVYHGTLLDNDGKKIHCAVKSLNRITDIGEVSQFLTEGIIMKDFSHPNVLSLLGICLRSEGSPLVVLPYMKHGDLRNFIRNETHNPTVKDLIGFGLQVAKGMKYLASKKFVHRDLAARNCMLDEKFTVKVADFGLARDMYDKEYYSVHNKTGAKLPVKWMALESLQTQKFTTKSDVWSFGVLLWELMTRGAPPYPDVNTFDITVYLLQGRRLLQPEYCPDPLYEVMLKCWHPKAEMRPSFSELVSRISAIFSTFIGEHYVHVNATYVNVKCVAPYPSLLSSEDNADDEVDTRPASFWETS
experimental_details: Inhibition of cMet at 10 uM
Parameters: scale not given: the % may be the effect or the level left
experimental_endpoint: Activity

Worked cases, Activity given:
| cpd_smiles | Activity |
| --- | --- |
| O=C(Nc1ccc(C(F)(F)F)c(Cl)c1)c1nc2ccccc2n1CCc1ccncc1 | > 30% |
| O=C(Nc1ccc(-c2ccccc2)cc1)c1ccnn1CCc1ccncc1 | > 30% |
| Cc1cc(C(=O)Nc2ccc(OC(F)(F)F)cc2)n(CCc2ccncc2)n1 | > 30% |

Please report the recorded Activity for O=C(Nc1ccc(Cl)cc1)c1ccnn1CCc1cnoc1 .
> 30%

Would you mind doing O=C(Nc1ccc(Cl)cc1)c1ccnn1CCc1ccncc1 as well?
> 30%

----------
log10 of IC50 values, listed per item
system_tested: Vascular endothelial growth factor receptor 1 (Homo sapiens)
Sequence (P17948 whole entry): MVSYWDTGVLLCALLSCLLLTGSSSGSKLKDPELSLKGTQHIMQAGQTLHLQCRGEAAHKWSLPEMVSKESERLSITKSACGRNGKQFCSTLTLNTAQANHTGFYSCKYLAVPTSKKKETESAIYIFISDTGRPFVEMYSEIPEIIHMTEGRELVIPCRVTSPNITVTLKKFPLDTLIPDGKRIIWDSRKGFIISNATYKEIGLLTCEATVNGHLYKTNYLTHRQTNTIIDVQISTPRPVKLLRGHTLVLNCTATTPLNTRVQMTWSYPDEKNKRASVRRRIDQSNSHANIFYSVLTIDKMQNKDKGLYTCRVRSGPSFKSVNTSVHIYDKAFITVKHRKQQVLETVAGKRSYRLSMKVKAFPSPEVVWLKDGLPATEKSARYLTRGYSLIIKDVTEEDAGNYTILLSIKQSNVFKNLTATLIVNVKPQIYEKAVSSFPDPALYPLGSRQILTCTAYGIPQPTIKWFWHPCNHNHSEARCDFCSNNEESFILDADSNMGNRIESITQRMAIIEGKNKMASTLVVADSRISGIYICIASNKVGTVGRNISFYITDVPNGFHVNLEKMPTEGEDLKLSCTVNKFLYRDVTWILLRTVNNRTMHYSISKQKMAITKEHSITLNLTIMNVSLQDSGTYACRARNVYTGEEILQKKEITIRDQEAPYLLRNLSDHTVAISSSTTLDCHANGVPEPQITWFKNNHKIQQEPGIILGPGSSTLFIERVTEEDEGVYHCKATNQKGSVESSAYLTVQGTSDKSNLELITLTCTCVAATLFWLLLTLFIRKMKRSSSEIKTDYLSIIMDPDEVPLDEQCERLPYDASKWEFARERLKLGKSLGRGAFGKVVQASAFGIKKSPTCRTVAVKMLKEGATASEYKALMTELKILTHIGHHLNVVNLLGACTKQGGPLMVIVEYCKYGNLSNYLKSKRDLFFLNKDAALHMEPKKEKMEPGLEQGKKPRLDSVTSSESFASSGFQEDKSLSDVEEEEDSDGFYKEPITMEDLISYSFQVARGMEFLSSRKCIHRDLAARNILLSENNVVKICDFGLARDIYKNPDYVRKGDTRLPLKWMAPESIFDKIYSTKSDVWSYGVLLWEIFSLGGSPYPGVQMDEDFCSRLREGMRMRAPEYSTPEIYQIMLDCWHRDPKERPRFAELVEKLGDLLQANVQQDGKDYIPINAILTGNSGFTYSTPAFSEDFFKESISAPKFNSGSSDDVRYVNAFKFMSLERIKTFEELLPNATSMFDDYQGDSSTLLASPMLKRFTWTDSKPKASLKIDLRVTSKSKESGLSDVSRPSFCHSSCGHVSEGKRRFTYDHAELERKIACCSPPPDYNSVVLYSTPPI
experimental_details: Inhibition of VEGFR1 assessed as inhibition of phosphorylation in presence of 2 uM ATP by HTRF assay
In plain terms, each number is the log10 of measured IC50 in nM.

Worked cases, log10 of IC50 given:
| cpd_smiles | readout_value |
| --- | --- |
| Cc1cc(C(=O)Nc2ccc(Cl)cc2)n(CCc2ccncc2)n1 | 3.09 |
| O=C(Nc1ccc(Oc2ccccc2)cc1)c1ccnn1CCc1ccncc1 | 3.72 |
| CCc1ccc(NC(=O)c2ccnn2CCc2ccncc2)cc1 | 2.34 |
| O=C(Nc1ccc(C(F)(F)F)c(Cl)c1)c1nccn1CCc1ccncc1 | 3.66 |

Please report the recorded log10 of IC50 for O=C(Nc1cccc(OC(F)(F)F)c1)c1ccnn1CCc1ccncc1 .
2.65

Would you mind doing O=C(Nc1ccc(Cl)cc1)c1ccnn1CCc1ccncc1 as well?
1.99

Would you mind doing COc1ccc(NC(=O)c2ccnn2CCc2ccncc2)cc1OC as well?
3.09

Would you mind doing O=C(Nc1ccc(C(F)(F)F)c(Cl)c1)c1ccnn1CCc1ccncc1 as well?
2.99

Would you mind doing O=C(Nc1ccc(C(F)(F)F)cc1)c1nnnn1CCc1ccncc1 as well?
3.03

----------
system_tested: UniProtKB P17948
experimental_details: Inhibition of VEGFR1 assessed as inhibition of phosphorylation in presence of 2 uM ATP by HTRF assay
pIC50: −log10 of the molar value.
Rule: pIC50 under 6 gives NOT MET, otherwise MET.

Field: example entries. Status: answers known.
| cpd_smiles | label_value |
| --- | --- |
| O=C(Nc1ccc(OCc2ccccc2)cc1)c1ccnn1CCc1ccncc1 | NOT MET |
| Cc1nn(CCc2ccncc2)c(C(=O)Nc2ccc(Cl)cc2)c1C | NOT MET |
| O=C(Nc1ccc(Cl)cc1)c1ccnn1CCc1ccccn1 | NOT MET |

Threshold query (pIC50 >= 6) on CC(C)(C)c1ccc(NC(=O)c2ccnn2CCc2ccncc2)cc1
MET

Would you mind doing O=C(Nc1ccc(Cl)cc1)c1cc2ccccc2n1CCc1ccncc1 as well?
NOT MET

Would you mind doing O=C(Nc1ccc(OC(F)(F)F)cc1)c1nnnn1CCc1ccncc1 as well?
NOT MET

Would you mind doing O=C(Nc1ccc(Cl)cc1)c1ccnn1CCc1c[nH]cn1 as well?
NOT MET

Would you mind doing O=C(Nc1ccc(OC(F)(F)F)cc1)c1ccnn1CCc1ccncc1 as well?
MET

----------
system_tested: RAC-alpha serine/threonine-protein kinase (Homo sapiens) (UniProt P31749)
Sequence (P31749 whole entry): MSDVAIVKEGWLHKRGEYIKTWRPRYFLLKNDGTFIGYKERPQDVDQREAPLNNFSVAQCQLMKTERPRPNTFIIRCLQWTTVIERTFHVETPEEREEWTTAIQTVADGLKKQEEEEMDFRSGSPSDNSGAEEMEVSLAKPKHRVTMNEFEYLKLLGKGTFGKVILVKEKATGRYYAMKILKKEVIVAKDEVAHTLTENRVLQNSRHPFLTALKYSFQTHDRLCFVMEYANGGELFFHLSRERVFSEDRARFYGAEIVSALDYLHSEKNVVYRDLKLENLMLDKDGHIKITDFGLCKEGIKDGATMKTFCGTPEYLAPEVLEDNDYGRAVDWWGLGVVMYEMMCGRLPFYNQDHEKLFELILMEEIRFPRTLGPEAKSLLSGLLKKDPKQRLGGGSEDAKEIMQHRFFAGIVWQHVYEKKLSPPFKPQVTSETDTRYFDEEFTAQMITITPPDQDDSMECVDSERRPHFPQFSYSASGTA
experimental_details: Inhibition of PKB/Akt at 10 uM
Parameters: scale not given: the % may be the effect or the level left
Activity values, listed per item

| cpd_smiles | Activity |
| --- | --- |
| O=C(Nc1cccc(OC(F)(F)Cl)c1)c1ccnn1CCc1ccncc1 | > 30% |
| CC(C)c1ccc(NC(=O)c2ccnn2CCc2ccncc2)cc1 | > 30% |

Please look at the following compound next.
Please report the recorded Activity for CC(C)(C)c1ccc(NC(=O)c2nccn2CCc2ccncc2)cc1 .
> 30%
